Species: Rattus norvegicus
Assay remarks: DrugMatrix - Regimen: Daily Repeat
Type: toxicity, organism-based, Sprague-Dawley
Design: regimen Daily Repeat, gender Male, age 6-8 weeks
Assay context: in vivo, po, 0 mg/kg, 72 h, tissue Plasma, route oral GAVAGE, dose level Control, time 3 day, vehicle 100 % WATER
Parameter: CREATININE. Scope: all listed entries.
State the result as a value with its unit after it.

Worked examples, 3 molecules total:
# Smiles notation, CREATININE
measured = [
    ("Nc1ccc(S(=O)(=O)Nc2ccnn2-c2ccccc2)cc1", "0.18 mg/dL"),
    ("CC1(C)S[C@@H]2[C@H](NC(=O)[C@H](N)c3ccc(O)cc3)C(=O)N2[C@H]1C(=O)O", "0.22 mg/dL"),
    ("NC(=O)c1ncn([C@@H]2O[C@H](CO)[C@@H](O)[C@H]2O)n1", "0.2 mg/dL"),
]

Proceeding to the next molecule to report its CREATININE.
Asked: Sample C[C@]12Cc3c[nH]nc3C[C@@H]1CC[C@@H]1[C@@H]2CC[C@@]2(C)[C@H]1CC[C@]2(C)O — what was its CREATININE?
Given back: 0.17 mg/dL

---

Species: Rattus norvegicus
Assay remarks: DrugMatrix - Regimen: Daily Repeat
Format: toxicity, organism-based, Sprague-Dawley
Design: regimen Daily Repeat, gender Male, age 6-8 weeks
Assay context: in vivo, po, 0 mg/kg, 120 h, tissue Plasma, route oral GAVAGE, dose level Control, time 5 day, […]
Parameter: PHOSPHORUS. Scope: all listed entries.

Worked examples, 3 compounds total:
# Compound, PHOSPHORUS
measured = [
    ("CC(C)n1c(/C=C/C(O)CC(O)CC(=O)O)c(-c2ccc(F)cc2)c2ccccc21 (stereo not drawn)", "8.18 mg/dL"),
    ("COCc1c(C(C)C)nc(C(C)C)c(/C=C/[C@@H](O)C[C@@H](O)CC(=O)O)c1-c1ccc(F)cc1", "10.88 mg/dL"),
    ("COc1ccc2c(c1)c(CC(=O)OCC(=O)O)c(C)n2C(=O)c1ccc(Cl)cc1", "11.7 mg/dL"),
]

Proceeding to the next compound to report its PHOSPHORUS.
Asked: Sample c1ccc2[nH]c(-c3cscn3)nc2c1 — what was its PHOSPHORUS?
Given back: 10.43 mg/dL

---

Parameter: TOTAL PROTEIN. Scope: all listed entries.
Species on record: Rattus norvegicus
Assay remarks: DrugMatrix - Regimen: Daily Repeat
Assay type: toxicity, organism-based, Sprague-Dawley
Design: regimen Daily Repeat, gender Male, age 6-8 weeks
Assay context: in vivo, po, 2000 mg/kg, 72 h, tissue Plasma, route oral GAVAGE, dose level High, time 3 day, vehicle .5 % CMC
// return numeric value only (unit: G/DL, not printed)

Worked examples, 3 compounds total:
# Compound, TOTAL PROTEIN [G/DL]
measured = [
    ("NCCCC[C@H](N[C@@H](CCc1ccccc1)C(=O)O)C(=O)N1CCC[C@H]1C(=O)O [LISINOPRIL ANHYDROUS]", 5.77),
    ("CC(=O)O[C@]1(C(C)=O)CC[C@H]2[C@@H]3C=C(Cl)C4=CC(=O)CC[C@]4(C)[C@H]3CC[C@@]21C [CHLORMADINONE ACETATE]", 6.6),
    ("NCC(=O)O [GLYCINE]", 5.57),
]

Proceeding to the next compound to report its TOTAL PROTEIN.
Asked: Sample CC(C)[C@H](N)C(=O)OCCOCn1cnc2c(=O)[nH]c(N)nc21 [VALACYCLOVIR] — what was its TOTAL PROTEIN?
Given back: 6.3
